Please go through the items and note down their IC50.
Give just the number in nM; leave the unit off.

Identify the measured IC50 of "CNS(=O)(=O)Nc1cccc(Cn2c(=O)oc3cc(OS(C)(=O)=O)ccc3c2=O)c1F" for Serine/threonine-protein kinase B-raf (Homo sapiens, UniProt P15056, Y340D/Y341D).
2540

Identify the measured IC50 of "CNS(=O)(=O)Nc1cccc(Cn2c(=O)oc3cc(OC(C)=O)ccc3c2=O)c1F" for Serine/threonine-protein kinase B-raf (Homo sapiens, UniProt P15056, Y340D/Y341D).
610

Identify the measured IC50 of "CN(C)C(=O)Oc1ccc2c(=O)n(Cc3cccc(NS(=O)(=O)Nc4ccccc4)c3F)c(=O)oc2c1" for Serine/threonine-protein kinase B-raf (Homo sapiens, UniProt P15056, Y340D/Y341D).
1640

Identify the measured IC50 of "CCS(=O)(=O)Oc1ccc2c(=O)n(Cc3cccc(NS(=O)(=O)NC)c3F)c(=O)oc2c1" for Serine/threonine-protein kinase B-raf (Homo sapiens, UniProt P15056, Y340D/Y341D).
670

Identify the measured IC50 of "CN(C)C(=O)Oc1ccc2c(=O)n(Cc3cccc(NS(=O)(=O)NCCC#N)c3F)c(=O)oc2c1" for Serine/threonine-protein kinase B-raf (Homo sapiens, UniProt P15056, Y340D/Y341D).
60

Identify the measured IC50 of "CN(C)C(=O)Oc1ccc2c(=O)n(Cc3cccc(NS(N)(=O)=O)c3F)c(=O)oc2c1" for Serine/threonine-protein kinase B-raf (Homo sapiens, UniProt P15056, Y340D/Y341D).
840

Identify the measured IC50 of "CN(C)C(=O)Oc1ccc2c(=O)n(Cc3cccc(NS(=O)(=O)NCC(F)(F)F)c3F)c(=O)oc2c1" for Serine/threonine-protein kinase B-raf (Homo sapiens, UniProt P15056, Y340D/Y341D).
420

Identify the measured IC50 of "CN(C)C(=O)Oc1ccc2c(=O)n(Cc3ccc(F)c(NS(C)(=O)=O)c3)c(=O)oc2c1" for Serine/threonine-protein kinase B-raf (Homo sapiens, UniProt P15056, Y340D/Y341D).
9870

Identify the measured IC50 of "CN(C)C(=O)Oc1ccc2c(=O)n(Cc3cccc(NS(C)(=O)=O)c3F)c(=O)oc2c1" for Serine/threonine-protein kinase B-raf (Homo sapiens, UniProt P15056, Y340D/Y341D).
300

Identify the measured IC50 of "CNS(=O)(=O)Nc1cccc(Cn2c(=O)oc3cc(OC(=O)C(C)C)ccc3c2=O)c1F" for Serine/threonine-protein kinase B-raf (Homo sapiens, UniProt P15056, Y340D/Y341D).
720

Identify the measured IC50 of "CC(C)NS(=O)(=O)Nc1cccc(Cn2c(=O)oc3cc(OC(=O)N(C)C)ccc3c2=O)c1F" for Serine/threonine-protein kinase B-raf (Homo sapiens, UniProt P15056, Y340D/Y341D).
210

Identify the measured IC50 of "CN(C)C(=O)Oc1ccc2c(=O)n(Cc3cccc(NS(=O)(=O)NCc4ccccc4)c3F)c(=O)oc2c1" for Serine/threonine-protein kinase B-raf (Homo sapiens, UniProt P15056, Y340D/Y341D).
1490

Identify the measured IC50 of "CCC(=O)Oc1ccc2c(=O)n(Cc3cccc(NS(=O)(=O)NC)c3F)c(=O)oc2c1" for Serine/threonine-protein kinase B-raf (Homo sapiens, UniProt P15056, Y340D/Y341D).
230
